Listed here: compounds with reported IC50 for Human JAK-2 (Homo sapiens, UniProt O60674).

Worked cases, answers included:
compound: O=C(CN1CCN(c2ncnc3[nH]ccc23)CC1)Nc1ccc(S(=O)(=O)N2CCC2)cc1
recorded measurement: > 1000 nM
//
compound: CC(C(=O)Nc1ccc(S(=O)(=O)N2CCCCC2)cc1)N1CCN(c2ncnc3[nH]ccc23)CC1 (centres unmarked)
recorded measurement: > 1000 nM
//
compound: CNS(=O)(=O)c1ccc(NC(=O)CN2CCN(c3ncnc4[nH]ccc34)CC2)cc1
recorded measurement: 500 to 1000 nM
//
compound: CCCCNS(=O)(=O)c1ccc(NC(=O)CN2CCN(c3ncnc4[nH]ccc34)CC2)cc1
recorded measurement: > 1000 nM

Now take the following compound into account.
Qu. Query: IC50; subject: CN(C)S(=O)(=O)c1ccc(NC(=O)CCN2CCN(c3nc[nH]c4nccc3-4)CC2)cc1
Ans. > 1000 nM

----------
- target: UniProt P23458
- assay: JAK enzymatic assay (Eurofins KinaseProfiler/IC50Profiler, radiometric), JAK-1
- applied conditions: selectivity IC50 ratio for JAK1 versus JAK2, human enzymes
Measured JAK1/JAK2 selectivity accompanies every entry in the list below.
Keep the answer to the number alone.

Worked examples, 8 compounds total:
compound smiles: O=C(CN1CCN(c2nc[nH]c3nccc2-3)CC1)Nc1ccc(S(=O)(=O)Nc2ncccn2)cc1
target: UniProt P23458
metric: JAK1/JAK2 selectivity
recorded measurement: 1

compound smiles: O=C(CN1CCN(c2nc[nH]c3nccc2-3)CC1)Nc1cccc(S(=O)(=O)N2CCOCC2)c1
target: UniProt P23458
metric: JAK1/JAK2 selectivity
recorded measurement: 6

compound smiles: CC(C)NS(=O)(=O)c1ccc(NC(=O)[C@H](C)N2CCN(c3ncnc4[nH]ccc34)CC2)cc1
target: UniProt P23458
metric: JAK1/JAK2 selectivity
recorded measurement: 8

compound smiles: Cc1ccc(NC(=O)CN2CCN(c3nc[nH]c4nccc3-4)CC2)cc1S(=O)(=O)N(C)C
target: UniProt P23458
metric: JAK1/JAK2 selectivity
recorded measurement: 11

compound smiles: CC(C)N(C)S(=O)(=O)c1ccc(NC(=O)CN2CCN(c3nc[nH]c4nccc3-4)CC2)cc1
target: UniProt P23458
metric: JAK1/JAK2 selectivity
recorded measurement: 15

compound smiles: O=C(CN1CCN(c2ncnc3[nH]ccc23)CC1)Nc1ccc(S(=O)(=O)N2CCC2)cc1
target: UniProt P23458
metric: JAK1/JAK2 selectivity
recorded measurement: 24

compound smiles: CNS(=O)(=O)c1ccc(NC(=O)CN2CCN(c3ncnc4[nH]ccc34)CC2)cc1F
target: UniProt P23458
metric: JAK1/JAK2 selectivity
recorded measurement: 12

compound smiles: NS(=O)(=O)c1cccc(NC(=O)CCN2CCN(c3nc[nH]c4nccc3-4)CC2)c1
target: UniProt P23458
metric: JAK1/JAK2 selectivity
recorded measurement: 6

Next up:
Qu. Consider the compound CN(C)S(=O)(=O)c1ccccc1CNC(=O)CN1CCN(c2nc[nH]c3nccc2-3)CC1 and give its measured JAK1/JAK2 selectivity.
Ans. 10

----------
- target: JAK-1 (Homo sapiens)
- Sequence (P23458 whole entry): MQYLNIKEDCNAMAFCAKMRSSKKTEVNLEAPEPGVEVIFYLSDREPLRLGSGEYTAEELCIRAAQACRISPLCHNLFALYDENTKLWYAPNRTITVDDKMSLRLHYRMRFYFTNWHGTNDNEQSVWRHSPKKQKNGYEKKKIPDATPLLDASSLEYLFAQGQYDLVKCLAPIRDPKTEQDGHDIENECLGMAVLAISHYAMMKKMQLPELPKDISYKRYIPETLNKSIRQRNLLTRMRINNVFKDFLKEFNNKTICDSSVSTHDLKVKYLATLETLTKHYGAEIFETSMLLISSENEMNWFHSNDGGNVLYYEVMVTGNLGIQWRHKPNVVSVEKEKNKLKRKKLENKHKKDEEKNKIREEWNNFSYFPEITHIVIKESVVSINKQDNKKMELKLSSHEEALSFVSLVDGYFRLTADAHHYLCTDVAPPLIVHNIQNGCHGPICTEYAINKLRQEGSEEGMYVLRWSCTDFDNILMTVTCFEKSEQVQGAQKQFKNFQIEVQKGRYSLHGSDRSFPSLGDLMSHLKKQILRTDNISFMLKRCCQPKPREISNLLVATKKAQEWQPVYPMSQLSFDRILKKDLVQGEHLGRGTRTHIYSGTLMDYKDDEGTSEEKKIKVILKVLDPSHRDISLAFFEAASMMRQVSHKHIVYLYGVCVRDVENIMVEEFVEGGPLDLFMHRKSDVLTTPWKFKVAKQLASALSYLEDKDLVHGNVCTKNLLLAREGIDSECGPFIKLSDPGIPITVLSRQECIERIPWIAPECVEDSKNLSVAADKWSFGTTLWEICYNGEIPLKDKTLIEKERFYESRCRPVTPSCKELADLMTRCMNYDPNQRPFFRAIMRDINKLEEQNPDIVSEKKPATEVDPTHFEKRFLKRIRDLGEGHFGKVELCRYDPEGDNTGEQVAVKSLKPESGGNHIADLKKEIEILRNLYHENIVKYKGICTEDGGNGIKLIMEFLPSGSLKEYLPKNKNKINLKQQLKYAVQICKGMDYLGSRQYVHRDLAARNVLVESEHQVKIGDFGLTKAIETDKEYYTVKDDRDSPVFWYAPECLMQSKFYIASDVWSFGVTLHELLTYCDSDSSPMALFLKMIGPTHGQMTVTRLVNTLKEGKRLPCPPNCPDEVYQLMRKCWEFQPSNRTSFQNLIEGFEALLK
- assay: JAK enzymatic assay (Eurofins KinaseProfiler/IC50Profiler, radiometric), JAK-1
- applied conditions: selectivity IC50 ratio for JAK1 versus JAK2, human enzymes
metric: JAK1/JAK2 selectivity
Hey, just send me the number, nothing else.

Some compounds with known JAK1/JAK2 selectivity results, for comparison:
compound smiles: CNS(=O)(=O)c1ccc(N(C)C(=O)CN2CCN(c3ncnc4[nH]ccc34)CC2)cc1
target: JAK-1 (Homo sapiens)
JAK1/JAK2 selectivity: 17
//
compound smiles: O=C(CN1CCN(c2ncnc3[nH]ccc23)CC1)Nc1ccc(S(=O)(=O)NC2CC2)cc1
target: JAK-1 (Homo sapiens)
JAK1/JAK2 selectivity: 13
//
compound smiles: CNS(=O)(=O)c1ccc(NC(=O)CN2CCN(c3ncnc4[nH]ccc34)CC2)cc1
target: JAK-1 (Homo sapiens)
JAK1/JAK2 selectivity: 7

Here is the next item to consider.
Qu. # JAK1/JAK2 selectivity lookup, item NS(=O)(=O)c1cccc(NC(=O)CN2CCN(c3nc[nH]c4nccc3-4)CC2)c1
Ans. 14

Source of measurements: patent US20260092070A1
